# system: Wee1A kinase (CDK1 Tyr15 phosphorylation in ACHN renal cell carcinoma cells) (Homo sapiens, UniProt P30291)
# Construct: pCDK1 Tyr15 immunofluorescence read-out
# Sequence (P30291 whole entry): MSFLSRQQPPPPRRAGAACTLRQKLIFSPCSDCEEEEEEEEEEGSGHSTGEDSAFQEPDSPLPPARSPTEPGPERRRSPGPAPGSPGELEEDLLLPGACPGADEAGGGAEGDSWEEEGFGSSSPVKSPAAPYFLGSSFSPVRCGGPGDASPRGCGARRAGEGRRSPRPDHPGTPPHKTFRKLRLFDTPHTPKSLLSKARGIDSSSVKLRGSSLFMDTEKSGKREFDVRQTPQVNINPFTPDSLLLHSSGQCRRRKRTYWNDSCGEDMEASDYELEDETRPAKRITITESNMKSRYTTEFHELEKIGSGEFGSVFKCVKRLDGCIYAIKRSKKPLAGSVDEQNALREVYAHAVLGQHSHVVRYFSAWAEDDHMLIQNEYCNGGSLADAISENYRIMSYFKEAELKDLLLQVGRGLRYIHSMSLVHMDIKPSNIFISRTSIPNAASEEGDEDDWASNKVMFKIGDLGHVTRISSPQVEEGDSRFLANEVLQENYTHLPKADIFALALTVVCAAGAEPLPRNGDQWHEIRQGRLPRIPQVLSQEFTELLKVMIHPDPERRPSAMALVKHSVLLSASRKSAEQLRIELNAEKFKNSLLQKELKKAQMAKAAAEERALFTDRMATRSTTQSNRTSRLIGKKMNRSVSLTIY
# test: High-content imaging of pCdk1 Y15, Wee1A kinase target engagement in ACHN cells
# Assay type: cell-based
# experimental-setup: 4 h treatment, nuclear positivity for pCdk1 Y15 vs DMSO control, read-out: CDK1 Tyr15 Phosphorylation EC50
pEC50: −log10 of the molar value.
measured-parameter: pEC50

[[record]]
compound = "C=CCn1c(=O)c2cnc(Nc3ccc(OCC(F)(F)F)cc3)nc2n1-c1cccc(NC2CCNCC2)n1 [Compound 130]"
reported_measurement = "6.00 to 6.30"

[[record]]
compound = "C=CCn1c(=O)c2cnc(Nc3ccc(N4CCOCC4)c(C)c3)nc2n1-c1cccc(OC2CCN(C)CC2)n1 [Compound 270]"
reported_measurement = "> 7.00"

[[record]]
compound = "C=CCn1c(=O)c2cnc(Nc3ccc4c(cnn4C)c3)nc2n1-c1cccc(O[C@@H]2CCNC2)n1 [Compound 101]"
reported_measurement = "6.30 to 7.00"

[[record]]
compound = "C=CCn1c(=O)c2cnc(Nc3ccnc(C)c3)nc2n1-c1cccc(OC2CCN(C)CC2)n1 [Compound 112]"
reported_measurement = "> 7.00"

[[record]]
compound = "C=CCn1c(=O)c2cnc(Nc3ccc4cn(C)nc4c3)nc2n1-c1cccc(OC2CCN(C)CC2)n1 [Compound 398]"
reported_measurement = "> 7.00"

[[record]]
compound = "C=CCn1c(=O)c2cnc(Nc3ccc4c(cnn4C)c3)nc2n1-c1cccc(OC2CCNC(C)C2)n1 (stereo not shown) [Compound 404]"
reported_measurement = "> 7.00"

[[record]]
compound = "CCCn1c(=O)c2cnc(Nc3ccc4c(cnn4C)c3)nc2n1-c1cccc(OC2CCNCC2)n1 [Compound 110]"
reported_measurement = "6.30 to 7.00"

[[record]]
compound = "C=CCn1c(=O)c2cnc(Nc3ccc(OCCF)cc3)nc2n1-c1cccc(OC2CCN(C)CC2)n1 [Compound 234]"
reported_measurement = "> 7.00"

[[record]]
compound = "C=CCn1c(=O)c2cnc(Nc3ccc4c(cnn4C)c3)nc2n1-c1cccc(OC2CCN(C3COC3)CC2)n1 [Compound 349]"
reported_measurement = "> 7.00"

[[record]]
compound = "C=CCn1c(=O)c2cnc(Nc3ccc4cn(C)nc4c3)nc2n1-c1cccc(OC2CCNCC2)n1 [Compound 393]"
reported_measurement = "6.30 to 7.00"

[[record]]
compound = "CCn1c(=O)c2cnc(Nc3ccc(-c4cnn(C)c4)cc3)nc2n1-c1cccc(OC2CCN(C)CC2)n1 [Compound 277]"
reported_measurement = "> 7.00"

[[record]]
compound = "CCn1c(=O)c2cnc(Nc3ccc(C#N)cc3)nc2n1-c1cccc(OC2CCNCC2)n1 [Compound 302]"
reported_measurement = "6.00 to 6.30"

[[record]]
compound = "C=CCn1c(=O)c2cnc(Nc3ccc4ccncc4c3)nc2n1-c1cccc(OC2CCN(C)CC2)n1 [Compound 326]"
reported_measurement = "> 7.00"

[[record]]
compound = "C=CCn1c(=O)c2cnc(Nc3ccc(F)cc3)nc2n1-c1cccc(O[C@H]2CCCNCC2)n1 (single isomer, unassigned) [Compound 266]"
reported_measurement = "6.30 to 7.00"

[[record]]
compound = "C=CCn1c(=O)c2cnc(Nc3ccc4ccoc4c3)nc2n1-c1cccc(OC2CCN(C)CC2)n1 [Compound 195]"
reported_measurement = "> 7.00"

[[record]]
compound = "C=CCn1c(=O)c2cnc(Nc3ccc4occc4c3)nc2n1-c1cccc(OC2CCN(C)CC2)n1 [Compound 309]"
reported_measurement = "> 7.00"

[[record]]
compound = "C=CCn1c(=O)c2cnc(Nc3ccc(OCC(F)(F)F)cc3)nc2n1-c1cccc(OC2CCN(C)CC2)n1 [Compound 291]"
reported_measurement = "> 7.00"

[[record]]
compound = "Cc1cc(Nc2ncc3c(=O)n(C)n(-c4cccc(OC5CCN(C)CC5)n4)c3n2)ccc1F [Compound 152]"
reported_measurement = "6.30 to 7.00"

[[record]]
compound = "C=CCn1c(=O)c2cnc(Nc3ccc(OCC(F)(F)F)cc3)nc2n1-c1ccnc(OC2CCNCC2)n1 [Compound 252]"
reported_measurement = "> 7.00"

[[record]]
compound = "CCn1c(=O)c2cnc(Nc3cccc(-c4ccccc4)c3)nc2n1-c1cccc(OC2CCNCC2)n1 [Compound 338]"
reported_measurement = "< 6.00"

[[record]]
compound = "C=CCn1c(=O)c2cnc(Nc3ccc(Br)cc3)nc2n1-c1cccc(NC2CCNCC2)n1 [Compound 143]"
reported_measurement = "6.00 to 6.30"

[[record]]
compound = "C=CCn1c(=O)c2cnc(Nc3ccc(Cl)cc3)nc2n1-c1cccc(OC2CCN(C)CC2)n1 [Compound 142]"
reported_measurement = "> 7.00"

[[record]]
compound = "C=CCn1c(=O)c2cnc(Nc3ccc4cccnc4c3)nc2n1-c1cccc(OC2CCNCC2)n1 [Compound 243]"
reported_measurement = "> 7.00"

[[record]]
compound = "C=CCn1c(=O)c2cnc(Nc3ccc(OCCF)nc3)nc2n1-c1cccc(OC2CCN(C)CC2)n1 [Compound 399]"
reported_measurement = "> 7.00"

[[record]]
compound = "C=CCn1c(=O)c2cnc(Nc3ccc(C)nc3)nc2n1-c1cccc(OC2CCNCC2)n1 [Compound 237]"
reported_measurement = "6.30 to 7.00"


* * *

# system: Myt1 kinase (recombinant PMYT-1) (Homo sapiens, UniProt Q99640)
# Construct: full length PMYT-1 was expressed by baculovirus in insect cells; purchased Invitrogen A30984; host or cells: insect cells (baculovirus)
# Sequence (Q99640 1-499): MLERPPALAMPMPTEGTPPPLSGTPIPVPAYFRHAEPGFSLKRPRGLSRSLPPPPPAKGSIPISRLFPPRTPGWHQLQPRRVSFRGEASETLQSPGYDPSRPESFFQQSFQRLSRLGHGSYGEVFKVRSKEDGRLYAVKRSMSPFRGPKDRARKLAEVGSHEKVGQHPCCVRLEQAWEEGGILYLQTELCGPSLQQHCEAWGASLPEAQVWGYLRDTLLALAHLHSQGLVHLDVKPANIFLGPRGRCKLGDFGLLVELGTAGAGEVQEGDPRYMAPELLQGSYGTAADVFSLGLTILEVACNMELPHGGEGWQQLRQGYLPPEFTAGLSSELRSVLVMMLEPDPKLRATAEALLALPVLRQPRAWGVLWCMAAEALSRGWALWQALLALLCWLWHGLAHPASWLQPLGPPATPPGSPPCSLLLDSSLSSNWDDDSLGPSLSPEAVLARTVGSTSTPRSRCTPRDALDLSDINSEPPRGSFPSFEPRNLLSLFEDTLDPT
# test: Myt1 kinase binding assay (LanthaScreen Eu Kinase Binding Assay)
# experimental-setup: 3 nM tracer 178, 2.5 nM PMYT-1, 1 nM Eu-labeled antibody; read-out: Myt1 kinase Binding IC50
pIC50: −log10 of the molar value.
Overview of recorded pIC50 for various molecules
measured-parameter: pIC50

[[record]]
molecule = "C=CCn1c(=O)c2cnc(Nc3ccc(Cl)cc3)nc2n1-c1cccc(N(C)[C@H]2CCCNC2)n1 [Compound 173]"
measured_parameter = "pIC50"
reported_measurement = "< 6.30"

[[record]]
molecule = "C=CCn1c(=O)c2cnc(Nc3ccc(OCC(F)(F)F)cc3)nc2n1-c1cccc(NC2CCNCC2)n1 [Compound 130]"
measured_parameter = "pIC50"
reported_measurement = "7.00 to 7.70"

[[record]]
molecule = "C=CCn1c(=O)c2cnc(Nc3ccc(Cl)cc3)nc2n1-c1cccc(OC2CCN(C)CC2)n1 [Compound 142]"
measured_parameter = "pIC50"
reported_measurement = "> 7.70"

[[record]]
molecule = "C=CCn1c(=O)c2cnc(Nc3ccc(F)cc3)nc2n1-c1cccc(OC2CCCN(C)CC2)n1 (centres unmarked) [Compound 317]"
measured_parameter = "pIC50"
reported_measurement = "7.00 to 7.70"

[[record]]
molecule = "C=CCn1c(=O)c2cnc(Nc3ccc(Cl)cc3)nc2n1-c1cccc(N(C)[C@@H]2CCCNC2)n1 [Compound 171]"
measured_parameter = "pIC50"
reported_measurement = "< 6.30"


* * *

# system: Wee1A kinase (CDK1 Tyr15 phosphorylation in ACHN renal cell carcinoma cells) (Homo sapiens)
# Construct: pCDK1 Tyr15 immunofluorescence read-out
# test: High-content imaging of pCdk1 Y15, Wee1A kinase target engagement in ACHN cells
# Format: cell-based
# experimental-setup: 4 h treatment, nuclear positivity for pCdk1 Y15 vs DMSO control, read-out: CDK1 Tyr15 Phosphorylation EC50
# Protocol: Each of an ACHN renal cell carcinoma cell line (ATCC) and a DAOY medulloblastoma cell line, and an A427 lung cancer line were cultured in Minimum Essential Medium Eagle supplemented with 10% fetal calf serum (Sigma), 1% Penicillin-Streptomycin and 10 mM HEPES buffer (HyClone). […] For target engagement assessment of Wee1A kinase inhibition, high-content imaging of ACHN renal cell carcinoma cells was used for quantification of CDK1 phosphorylated on tyrosine 15 by immunofluorescence (“IF”). […]
Overview of recorded EC50 for various molecules
measured-parameter: EC50

[[record]]
molecule = "C=CCn1c(=O)c2cnc(Nc3ccc(OCC4CC4)cc3)nc2n1-c1cccc(OC2CCN(C)CC2)n1 [Compound 258]"
reported_measurement = "< 100 nM"

[[record]]
molecule = "C=CCn1c(=O)c2cnc(Nc3ccc(F)c(C)c3)nc2n1-c1cccc(OC2CCN(C)CC2)n1 [Compound 206]"
reported_measurement = "< 100 nM"

[[record]]
molecule = "C=CCn1c(=O)c2cnc(Nc3ccc4nccn4c3)nc2n1-c1cccc(OC2CCN(C)CC2)n1 [Compound 328]"
reported_measurement = "100 to 500 nM"

[[record]]
molecule = "C=CCn1c(=O)c2cnc(Nc3cccc(Br)c3)nc2n1-c1cccc(OC2CCN(C)CC2)n1 [Compound 269]"
reported_measurement = "100 to 500 nM"

[[record]]
molecule = "CCn1c(=O)c2cnc(Nc3cccc(-c4cncnc4)c3)nc2n1-c1cccc(OC2CCN(C)CC2)n1 [Compound 367]"
reported_measurement = "< 100 nM"

[[record]]
molecule = "C=CCn1c(=O)c2cnc(Nc3ccc4c(c3)OCO4)nc2n1-c1cccc(NC2CCN(C)CC2)n1 [Compound 196]"
reported_measurement = "< 100 nM"

[[record]]
molecule = "C=CCn1c(=O)c2cnc(Nc3ccc(OCCF)cc3)nc2n1-c1ccnc(OC2CCNCC2)n1 [Compound 391]"
reported_measurement = "100 to 500 nM"

[[record]]
molecule = "C=CCn1c(=O)c2cnc(Nc3ccc(OCC(F)(F)F)cc3)nc2n1-c1ccnc(OC2CCN(C3COC3)CC2)n1 [Compound 371]"
reported_measurement = "< 100 nM"

[[record]]
molecule = "C=CCn1c(=O)c2cnc(Nc3cnn(CCC)c3)nc2n1-c1cccc(OC2CCNCC2)n1 [Compound 179]"
reported_measurement = "> 1000 nM"

[[record]]
molecule = "C=CCn1c(=O)c2cnc(Nc3ccc(F)c(C)c3)nc2n1-c1cccc(NC2CCN(C)CC2)n1 [Compound 140]"
reported_measurement = "< 100 nM"

[[record]]
molecule = "C=CCn1c(=O)c2cnc(Nc3ccc(N4CCOCC4)cc3)nc2n1-c1cccc(OC2CCN(C)CC2)n1 [Compound 278]"
reported_measurement = "< 100 nM"

[[record]]
molecule = "C=CCn1c(=O)c2cnc(Nc3ccc(Cl)c(C)c3)nc2n1-c1cccc(NC2CCNCC2)n1 [Compound 133]"
reported_measurement = "100 to 500 nM"

